The values you see were collected from the supplement of paper PMC7125110.

B1: glmS ribozyme (parent)
chain: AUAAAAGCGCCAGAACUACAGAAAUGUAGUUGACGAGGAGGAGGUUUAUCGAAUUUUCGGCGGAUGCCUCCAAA

# Variants of: B1
# Assay info: self-cleavage kobs at 10000 uM GlcN6P; higher = faster cleavage; RNA array
# Run conditions: with glucosamine-6-phosphate
Fewer inactive variants are shown than the library holds.
Measured quantity: self-cleavage kobs at 10000 uM GlcN6P (s⁻¹)
Report the value in s⁻¹ with no unit label.

Query: What value of self-cleavage kobs at 10000 uM GlcN6P has been reported for the following variant? `AUAAAAGCGCCCGAACUACAGAAAUGUAGUUGACGAGGAGGAGGUUUAUCGAAUUUUCGGCGGAUGCCUUCAAA`
Response: 0.0163

Query: What value of self-cleavage kobs at 10000 uM GlcN6P has been reported for the following variant? `AUAAAAGCGCCAGAACUAAAGAAAUGUAGUUGACGAGGAGGAGGUUUAUCGAAUUUUCGGCGGAUGGCUCCAAA`
Response: 0.000347

Query: What value of self-cleavage kobs at 10000 uM GlcN6P has been reported for the following variant? `AUAAAUGCGCCAGAAUUACAGAAAUGUAGUUGACGAGGAGGAGGUUUAUCGAAUUUUCGGCGGAUGCUUCCAAA`
Response: 8.55e-05

Query: What value of self-cleavage kobs at 10000 uM GlcN6P has been reported for the following variant? `AUAAAAGAGACAGAACUACAGAAAUGUAGUUGACGAGAAGGAGGUUUAUGGAAUUUUCGGCGGAUGCCUCCAAA`
Response: 3.67e-05

Query: What value of self-cleavage kobs at 10000 uM GlcN6P has been reported for the following variant? `AUAAAAGCGCCAGAACUACAGAAAUGUAUUUGACGAGGAGGAGGUUUUUCGAAUUUUCGGCGGAUGCCUCCAAA`
Response: 3.9e-05

Query: What value of self-cleavage kobs at 10000 uM GlcN6P has been reported for the following variant? `AUAAAAGCGCCAGAACUACAGAAAUGUAGGUGACGAGGAGGAGGUUUAUCGAAUUUUCGGCGGAUGCCACCAAA`
Response: 6.73e-05

Query: What value of self-cleavage kobs at 10000 uM GlcN6P has been reported for the following variant? `AUAAAAGCGCCAGAACUACAGAAAUGUAGUUGACGAGGAGGAGGUUUAUCGAAUUUUGGGCGGAUGCCUCCAAA`
Response: 0.000149

Query: What value of self-cleavage kobs at 10000 uM GlcN6P has been reported for the following variant? `AUAAAAGCGCUAGAACUACAGAAAUGUAGUUGACGAGGAGGAGGGUUAUCGAAUUUUCGGCGGAUGCCUCCAAA`
Response: 0.000222

Query: What value of self-cleavage kobs at 10000 uM GlcN6P has been reported for the following variant? `AUAAAAGCGCCAGAACUACAGAAAUGUAGGUGACGAGGAGGUGGUUUAUCGAAUUUUCGGCGGAUGGCUCCAAA`
Response: 0.000167

Query: What value of self-cleavage kobs at 10000 uM GlcN6P has been reported for the following variant? `AUAAAAGCGCCAGUACUACAGAAAUGUAGUUGACGAGGAGGAGGUUUAUCGAACUUUCGGCGGAUGUCUCCAAA`
Response: 0.00163

Query: What value of self-cleavage kobs at 10000 uM GlcN6P has been reported for the following variant? `AUAAAAGCGCUAGAACUACAGAAAUGUAGUUGACGAGGAGGAGGUUUAUCGAAUAUUCGGCGGAUGCCUCCAAA`
Response: 0.0018

Query: What value of self-cleavage kobs at 10000 uM GlcN6P has been reported for the following variant? `AUAAAAGCGCCAGAACUACAGAAAUGUAGAUGACGAGGAGGAGGUUUAUCGAUUUUUCGGCGGAUGCCUCCAAA`
Response: 0.00523

Query: What value of self-cleavage kobs at 10000 uM GlcN6P has been reported for the following variant? `AUAAAGGCGCCAGACUUACAGAAAUGUAGUUGACGAGGAGGAGGUUUAUCGAAUUUUCGGCGGAUGCCUCCAAA`
Response: 4.37e-05

Query: What value of self-cleavage kobs at 10000 uM GlcN6P has been reported for the following variant? `AUAAAAGCGCCAGAACUACAGAAAUGUAGUUGACGAGGAGGAGGUUUAUCGAAUUUACGGCGGAUGGCUCCAAA`
Response: 7.6e-05

Query: What value of self-cleavage kobs at 10000 uM GlcN6P has been reported for the following variant? `AUAAAAGCGCCAGAAGUACAGAAAUGUAUUUGACGAGGAGGAGGUUUAUCGAAAUUUCGGCGGAUGCCUCCAAA`
Response: 0.0148

Query: What value of self-cleavage kobs at 10000 uM GlcN6P has been reported for the following variant? `AUAAAAGCGCCAGAACUACAGAAAUGUAGUUGACGAGGAGAAGGUUAAUCGAAUUUUCGGCGGAUGCCUCCAAA`
Response: 0.00055

Query: What value of self-cleavage kobs at 10000 uM GlcN6P has been reported for the following variant? `AUAAAAGCGCCAGUACUACAGAAAUGUAGUUGACGAGGAGUAGGUUUAUCGAAUUUUCGGCGGAUGCCUCCAAA`
Response: 0.000271

Query: What value of self-cleavage kobs at 10000 uM GlcN6P has been reported for the following variant? `AUAAAAGCGCCAGAACUACAGAAAUGUAGUUGACGAGGACGAGGUUUAUCGAAUUUUCGGCGGAUGCCUUGAAA`
Response: 0.00243

Query: What value of self-cleavage kobs at 10000 uM GlcN6P has been reported for the following variant? `AUAAAAGCGCCAGAACUACAGAAAUGUAGUUGACGAGGACGAGGUUUAUCGAACUUUCGGCGGAUGCCUCCAAA`
Response: 0.00203

Query: What value of self-cleavage kobs at 10000 uM GlcN6P has been reported for the following variant? `AUAAAAGCGCCAAAAUUACAGAAAUGUAGUUGACGAGGAGGAGGUUUAUCGAAUUUUCGGCGGAUGUCUCCAAA`
Response: 0.00025

Query: What value of self-cleavage kobs at 10000 uM GlcN6P has been reported for the following variant? `AUAAAAGCGCCAGAACUACAGAAAUGUAGUUGACGAGGAAGAGGUUUAUCGAAUUAUCGGCGGAUGCCUCCAAA`
Response: 0.00516

Query: What value of self-cleavage kobs at 10000 uM GlcN6P has been reported for the following variant? `AUAAAAGCGCCAGAUCUACAGAAAUGUAGUUAACGAGGAGGAGGUUUAUCGAAUUUUCGGCGGAUGCCUCCAAA`
Response: 0.00082

Query: What value of self-cleavage kobs at 10000 uM GlcN6P has been reported for the following variant? `AUAAAUGCGCCAGAACUACAGACAUGUAGGUGACGAGGAGGAGGUUUAUCGAAUUUUCGGCGGAUGCCUCCAAA`
Response: 4.19e-05

Query: What value of self-cleavage kobs at 10000 uM GlcN6P has been reported for the following variant? `AUAAAAGCGCCAGAACUACAGAAAUGUAGUUGACGAGGAGGAGGUUUAUCGAAUUAUCGGCGGAAGCCUCCAAA`
Response: 0.00148

Query: What value of self-cleavage kobs at 10000 uM GlcN6P has been reported for the following variant? `AUAAAAGCGCCAGAACUACAGAAAUGUAGUAGACGAGGAGGAGGUUUAUCGAAUUUUCGGCGGAAGCCUCCAAA`
Response: 0.00191

Query: What value of self-cleavage kobs at 10000 uM GlcN6P has been reported for the following variant? `AUAAAAGCGCCAGAACUACAGAAAUGUAGUUGACGAGGAGGGGGUUUGUCGAAUUUUCGGCGGAUGCCUCCAAA`
Response: 3.86e-05

Query: What value of self-cleavage kobs at 10000 uM GlcN6P has been reported for the following variant? `AUAAAAGCGUCAGAACUACAGAAAUGUAGUUGACGAGGAGGAGGUUUAUCGAAAUUUCGGCGGAUGCCUCCAAA`
Response: 4.37e-05

Query: What value of self-cleavage kobs at 10000 uM GlcN6P has been reported for the following variant? `AUAAAAGCGCCAGAACUACAGAAAUGUAAUUGACGAGGAGGAGGUUUAUCGAAUUUUCGGCGGAUGUCUUCAAA`
Response: 6.18e-05

Query: What value of self-cleavage kobs at 10000 uM GlcN6P has been reported for the following variant? `AUAAAAGCGCCAGAACUACAGAAAUGUAGUUGACGAGGAGGAGGUUUAUCGAAUUUUCGGCGGAACCCUCCAAA`
Response: 0.000436

Query: What value of self-cleavage kobs at 10000 uM GlcN6P has been reported for the following variant? `AUAAAAGCGCCAGAAUUACAGAAAUGUAGUUGACGAGGCGGAGGUUUAUCGAAUUUUCGGCGGAUGCCUCCAAA`
Response: 0.00545

Query: What value of self-cleavage kobs at 10000 uM GlcN6P has been reported for the following variant? `AUAAAAGCGCCAGAACUACAGAAAUGUAGUAGACGUGGAGGAGGUUGAUCGAAUUUUCGGCGGAUGCCUGCAAA`
Response: 5.95e-05

Query: What value of self-cleavage kobs at 10000 uM GlcN6P has been reported for the following variant? `AUAAAAGCGCCAGAGCUACAGAAAUGUAGUUGACGAGGAGGAGGUUUAUCGAAUUUUCUGCGGAUGCCUCCAAA`
Response: 9.05e-05

Query: What value of self-cleavage kobs at 10000 uM GlcN6P has been reported for the following variant? `AUAAAAGCGCCAGAACUACAGAAAUGUAGUUGACCAUGAGGAGGUUUAUCGAAUUUUCGGCGGAUGCGUCCAAA`
Response: 7.56e-05

Query: What value of self-cleavage kobs at 10000 uM GlcN6P has been reported for the following variant? `AUAAAAGCGCCUGAACUACAGAAAUGUAAUUGACGAGGAGGAGGUUUAUCGAAUUUUCGGCGGAUGCCUACAAA`
Response: 9.81e-05

Query: What value of self-cleavage kobs at 10000 uM GlcN6P has been reported for the following variant? `AUAAAAGCGCCAGGACUACAGAAAUGUAGUUGACGAGGUGGAGGUUUAUCGAAUUCUCGGCGGAUGCCUCCAAA`
Response: 0.00921

Query: What value of self-cleavage kobs at 10000 uM GlcN6P has been reported for the following variant? `AUAAAAGCGCCAGAACUACAGAAAUGUAGUUGACGAGGCGGAGGUUUAUCGAAUGUUCGGCGGAUGCCUUCAAA`
Response: 0.000211

Query: What value of self-cleavage kobs at 10000 uM GlcN6P has been reported for the following variant? `AUAAAAGCGCCAGAACUACAGAAAUGUAGUUGACGAGGAGGAGAUUUAUCGAAUUUUCGGCGGAUGGCUCCAAA`
Response: 0.000371

Query: What value of self-cleavage kobs at 10000 uM GlcN6P has been reported for the following variant? `AUAAAAGCGCCAGAACUACAGAAAUGUAGUUGACGAGGAGGAGGUUUAUCGAAUUUUCGGCGGAAGCCUCCAAA`
Response: 0.00502

Query: What value of self-cleavage kobs at 10000 uM GlcN6P has been reported for the following variant? `AUAAAAGCGCCGGUACUACAGAAAUGUAGUUGACGAGGAGGAGGUUUAUCGAAUUUUAGGCGGAUCCCUCCAAA`
Response: 8.77e-05

Query: What value of self-cleavage kobs at 10000 uM GlcN6P has been reported for the following variant? `AUAAAAGCGCUGGAGCUACAGAAAUGUAGUUGACGAGGAGGAGGUUUAUCGAAUUUUCGGCGGAUGCCUCCAAA`
Response: 0.000749

Query: What value of self-cleavage kobs at 10000 uM GlcN6P has been reported for the following variant? `AUAAAAGCGCUAGAACUACAGAAAUGUAGUUUACGAGGAGGAGGUUUAUCGAAUUUUCGGCGGAUGCCUCCAAA`
Response: 3.94e-05

Query: What value of self-cleavage kobs at 10000 uM GlcN6P has been reported for the following variant? `AUAAAAGCGCCAGAACUACAGAAAUGUAGCUUACGAGGAGGAGGUUUAUCGAAUUUUCGGCGGAUGCCUCCAAA`
Response: 0.000403

Query: What value of self-cleavage kobs at 10000 uM GlcN6P has been reported for the following variant? `AUAAAAGCGCCAGAACUACAGAAAUGUAGUUGACGAGGAGGAGGUUUAUCGAAUGUUCGGCGGAUGCAUCCAAA`
Response: 2.8e-05

Query: What value of self-cleavage kobs at 10000 uM GlcN6P has been reported for the following variant? `AUAAAAGCGCCAGAAUUACAGAAAUGUAGUUGACGAGGAGGAGGUUUUUCGAAUUUUCGGCGGAUGCCUCCAAA`
Response: 0.000297

Query: What value of self-cleavage kobs at 10000 uM GlcN6P has been reported for the following variant? `AUAAAAGCGCCAGAACUACAGAAAUGUAGUUGACGAGGAGGAGGUUUAUCGAAUUUUCGGCGGAGGCCACCAAA`
Response: 0.000174

Query: What value of self-cleavage kobs at 10000 uM GlcN6P has been reported for the following variant? `AUAAAAGCGCCAGAUCUACAGAAAUGUAGUUGACGAGGAGGAGUUUGAUCGAAUUUUCGGCGGAUGGCUCCAAA`
Response: 0.000418

Query: What value of self-cleavage kobs at 10000 uM GlcN6P has been reported for the following variant? `AUAAAAGCGCCAGAACUACAGAAAUGUAGUUGACGAGGAGGGGGUUUAUCGAAAUUUCGGCGGAUGCCUCCAAA`
Response: 0.0172

Query: What value of self-cleavage kobs at 10000 uM GlcN6P has been reported for the following variant? `AUAAAAGCGCCAGAACUACAGAAAUGUAGUUGACGAGGAGGAGGUUUAUCGAAUAUUCGGCGGUUGCCUCAAAA`
Response: 4.3e-05

Query: What value of self-cleavage kobs at 10000 uM GlcN6P has been reported for the following variant? `AUAAAAGCGCCAGAACUACAUAAAUGUAGUUGUCGAGGAGGAGGUUUAUCGAAUUUUCGGCGGAUGCCUUCAAA`
Response: 0.000159
